# key: entry, value: IC50
Molecular target: Membrane-associated tyrosine- and threonine-specific cdc2-inhibitory kinase (Homo sapiens, UniProt Q99640)
Sequence (Q99640 whole entry): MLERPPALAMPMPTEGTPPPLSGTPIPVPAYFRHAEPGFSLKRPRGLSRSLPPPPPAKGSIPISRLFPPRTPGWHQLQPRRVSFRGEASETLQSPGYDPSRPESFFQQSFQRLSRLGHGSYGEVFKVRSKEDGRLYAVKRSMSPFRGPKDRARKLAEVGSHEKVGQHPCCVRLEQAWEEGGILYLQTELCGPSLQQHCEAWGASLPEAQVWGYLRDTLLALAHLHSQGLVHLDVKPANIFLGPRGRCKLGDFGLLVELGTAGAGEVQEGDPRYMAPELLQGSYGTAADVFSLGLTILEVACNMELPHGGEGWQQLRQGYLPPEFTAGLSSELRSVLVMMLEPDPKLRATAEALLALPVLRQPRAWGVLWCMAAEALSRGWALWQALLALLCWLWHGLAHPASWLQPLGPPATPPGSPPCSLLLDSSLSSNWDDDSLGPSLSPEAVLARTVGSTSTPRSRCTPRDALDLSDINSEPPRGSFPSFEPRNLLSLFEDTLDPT
Experiment: Inhibition of PKMYT1 (unknown origin)

{"columns": ["compound", "IC50"],
 "data": [
  ["CSc1ncc2c(C(N)=O)c(N)n(-c3c(C)ccc(O)c3C)c2n1", "< 100 nM"],
  ["COc1ccnc2c(-c3cccc(O)c3C)c(N)c(C(N)=O)cc12", "< 50 nM"],
  ["Cc1cc2c3c(N)ncnc3n(-c3c(C)ccc(O)c3C)c2nc1C", "< 100 nM"],
  ["CC1=CC2C(C(N)=O)=C(N)C(c3c(C)ccc(O)c3C)N2N=C1C (stereo unspecified)", "< 10 nM"],
  ["Cc1ccc(O)c(C)c1-n1nc(-c2nccs2)c(C(N)=O)c1N", "≤ 10 nM"],
  ["Cc1cc2c(C(N)=O)c(N)n(-c3c(C)c(O)cc(F)c3C)c2nc1C", "≤ 200 nM"],
  ["Cc1ccc(O)c(C)c1-c1c(N)c(C(N)=O)nc2cccnc12", "< 50 nM"],
  ["Cc1ccc(O)c(C)c1-n1c2ncc(N3CCOCC3)nc2c2c(N)ncnc21", "< 100 nM"],
  ["Cc1ccc(O)c(C)c1-c1c(N)c(C(N)=O)nc2nccnc12", "< 50 nM"],
  ["Cc1c(O)cccc1-c1c(N)c(C(N)=O)nc2cccnc12", "< 50 nM"],
  ["CC1=NN2C(C=C1C1CC1)C(C(N)=O)=C(N)C2c1c(C)ccc(O)c1C (stereo unspecified)", "< 10 nM"]
]}
